Target: T1, 4H48-AA
T1 chain: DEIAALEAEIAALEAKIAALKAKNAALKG
Test: two-hybrid library CCmax;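 further: natural log of median RNA to DNA barcode read ratio; higher means stronger binding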
Details: mean of both orientations
# interaction score >= -1 gives TRUE, anything below gives FALSE

1. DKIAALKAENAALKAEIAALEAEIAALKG [4H2754-AA] : FALSE
2. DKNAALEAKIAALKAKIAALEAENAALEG [4H3427-AA] : TRUE
3. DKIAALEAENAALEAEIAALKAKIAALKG [4H2190-AA] : TRUE
4. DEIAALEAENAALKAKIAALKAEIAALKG [4H234-AA] : TRUE
5. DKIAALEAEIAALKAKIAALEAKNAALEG [4H2151-AA] : TRUE
6. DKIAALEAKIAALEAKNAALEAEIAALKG [4H2354-AA] : FALSE
7. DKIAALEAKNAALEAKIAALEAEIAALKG [4H2466-AA] : FALSE
